Documented melting point across a set of compounds

# Smi, melting point
rows = [
    ("COc1ccc(-c2nc3cc(-c4nnc(SCC(=O)Nc5ccc(C(=O)/C=C/c6ccc(OC)c(OC)c6)cc5)o4)ccc3[nH]2)cc1", "222 to 224 °C"),
    ("COc1ccc(/C=C/C(=O)c2ccc(NC(=O)CSc3nnc(-c4ccc5[nH]c(-c6cc(OC)c(OC)c(OC)c6)nc5c4)o3)cc2)cc1", "200 to 204 °C"),
    ("O=C(CSc1nnc(-c2ccc3[nH]c(-c4ccccc4)nc3c2)o1)Nc1ccc(C(=O)/C=C/c2ccccc2)cc1", "273 to 275 °C"),
    ("COc1cc(-c2nc3cc(-c4nnc(SCC(=O)Nc5ccc(C(=O)/C=C/c6ccccc6)cc5)o4)ccc3[nH]2)cc(OC)c1OC", "188 to 190 °C"),
    ("COc1cc(/C=C/C(=O)c2ccc(NC(=O)CSc3nnc(-c4ccc5[nH]c(-c6ccccc6)nc5c4)o3)cc2)cc(OC)c1OC", "143 to 144 °C"),
    ("COc1ccc(-c2nc3cc(-c4nnc(SCC(=O)Nc5ccc(C(=O)/C=C/c6cc(OC)c(OC)c(OC)c6)cc5)o4)ccc3[nH]2)cc1", "154 to 156 °C"),
]

----------
Documented inhibition at 10 µM across a set of compounds
Tested on: NCI-H322M
Test: NCI one-dose SRB anti-proliferative screen
Format: cell-based
Conditions: Homo sapiens; NCI-H322M, Non-Small Cell Lung Cancer; NCI one dose; read-out: Cell growth inhibition %
Experimental: The twenty-four synthesized compounds were submitted to the National Cancer Institute (NCI), USA. Eighteen hybrids 7a-h, 7k-r, 7u, and 7v were selected by NCI for one-dose assessment of their anti-proliferative activities at 10 µM dose by Sulforhodamine B colorimetric assay. The assessment was performed in 60 cell lines derived from nine tumor subpanels, comprising lung, leukemia, melanoma, colon, renal, CNS, prostate, breast, and ovarian cancer cell lines. […]

# Compound, Target or test system, inhibition at 10 µM
rows = [
    ("COc1ccc(/C=C/C(=O)c2ccc(NC(=O)CSc3nnc(-c4ccc5[nH]c(-c6ccccc6)nc5c4)o3)cc2)cc1 [Compound 7c]", "NCI-H322M", "0%"),
    ("COc1ccc(/C=C/C(=O)c2ccc(NC(=O)CSc3nnc(-c4ccc5[nH]c(-c6ccc(OC)cc6)nc5c4)o3)cc2)cc1 [Compound 7m]", "NCI-H322M", "3.18%"),
    ("COc1ccc(-c2nc3cc(-c4nnc(SCC(=O)Nc5ccc(C(=O)/C=C/c6ccc(Cl)cc6)cc5)o4)ccc3[nH]2)cc1 [Compound 7l]", "NCI-H322M", "0%"),
    ("COc1ccc(/C=C/C(=O)c2ccc(NC(=O)CSc3nnc(-c4ccc5[nH]c(-c6ccccc6)nc5c4)o3)cc2)cc1OC [Compound 7d]", "NCI-H322M", "0%"),
    ("COc1cc(/C=C/C(=O)c2ccc(NC(=O)CSc3nnc(-c4ccc5[nH]c(-c6ccccc6)nc5c4)o3)cc2)cc(OC)c1OC [Compound 7e]", "NCI-H322M", "3.06%"),
    ("COc1ccc(-c2nc3cc(-c4nnc(SCC(=O)Nc5ccc(C(=O)/C=C/c6ccc(OC)c(OC)c6)cc5)o4)ccc3[nH]2)cc1 [Compound 7n]", "NCI-H322M", "5.07%"),
    ("COc1ccc(-c2nc3cc(-c4nnc(SCC(=O)Nc5ccc(C(=O)/C=C/c6ccccc6)cc5)o4)ccc3[nH]2)cc1 [Compound 7k]", "NCI-H322M", "0%"),
    ("O=C(CSc1nnc(-c2ccc3[nH]c(-c4ccccc4)nc3c2)o1)Nc1ccc(C(=O)/C=C/c2ccccc2)cc1 [Compound 7a]", "NCI-H322M", "0%"),
    ("COc1ccc(-c2nc3cc(-c4nnc(SCC(=O)Nc5ccc(C(=O)/C=C/c6cc(OC)c(OC)c(OC)c6)cc5)o4)ccc3[nH]2)cc1 [Compound 7o]", "NCI-H322M", "0%"),
    ("O=C(CSc1nnc(-c2ccc3[nH]c(-c4ccccc4)nc3c2)o1)Nc1ccc(C(=O)/C=C/c2ccc(Cl)cc2)cc1 [Compound 7b]", "NCI-H322M", "0%"),
]

The measurements presented in this section are drawn from paper PMC10504751.
